Where do the numbers come from? From ChEMBL document CHEMBL3112568.

test system: Candida albicans; experiment: Antifungal activity against Candida albicans Y0109 after 24 hrs by micro-broth dilution method; type: functional; conditions: Y0109, 24 h
result_type: MIC80

Solved entries (count: 5):
[
  {
    "compound": "COc1cccc(N2CCN(C(=S)SCC(O)(Cn3cncn3)c3ccc(F)cc3F)CC2)c1 (racemic)",
    "recorded_result": "≤ 0.125 µg/mL"
  },
  {
    "compound": "CCN(CC)C(=S)SCC(O)(Cn1cncn1)c1ccc(F)cc1F (racemic)",
    "recorded_result": "≤ 0.125 µg/mL"
  },
  {
    "compound": "OC(CSC(=S)N1CCOCC1)(Cn1cncn1)c1ccc(F)cc1F (racemic)",
    "recorded_result": "≤ 0.125 µg/mL"
  },
  {
    "compound": "OC(CSC(=S)N1CCN(c2ccccc2Cl)CC1)(Cn1cncn1)c1ccc(F)cc1F (racemic)",
    "recorded_result": "≤ 0.125 µg/mL"
  },
  {
    "compound": "OC(CSC(=S)N1CCN(c2cccc(F)c2)CC1)(Cn1cncn1)c1ccc(F)cc1F (racemic)",
    "recorded_result": "≤ 0.125 µg/mL"
  }
]

Record COc1ccc(N2CCN(C(=S)SCC(O)(Cn3cncn3)c3ccc(F)cc3F)CC2)cc1 (racemic) . Reported MIC80: ≤ 0.125 µg/mL

Record OC(CSC(=S)N1CCN(Cc2ccccc2)CC1)(Cn1cncn1)c1ccc(F)cc1F (racemic) . Reported MIC80: ≤ 0.125 µg/mL
